The values you see were collected from patent US10144715B2.

Assign Cell LXRα efficacy to each entry below.
- measurement-target: Gal4 DNA binding domain fused to the LBD of LXRα in HEK293 cells (Homo sapiens (Human), UniProt Q13133)
- Sequence (Q13133 209-447): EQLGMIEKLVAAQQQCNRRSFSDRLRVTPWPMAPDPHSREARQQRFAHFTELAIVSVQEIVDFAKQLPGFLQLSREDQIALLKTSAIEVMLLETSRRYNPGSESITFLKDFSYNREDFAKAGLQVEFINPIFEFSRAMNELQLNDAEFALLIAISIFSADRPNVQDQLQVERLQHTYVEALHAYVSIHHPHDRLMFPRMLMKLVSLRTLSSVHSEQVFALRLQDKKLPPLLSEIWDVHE
- assay-summary: LXR luciferase transcriptional reporter gene assay, agonist mode, LXRα
- Format: cell-based

**Query** # input compound: CC(C)[C@@H]1CN(c2ccc(F)c(S(C)(=O)=O)c2)CCN1c1ncc(C(O)C(F)(F)F)cn1 (some centres unmarked) [Cpd No 41-1] ; wanted: its Cell LXRα efficacy
**Result** 3334 (36) %

**Query** # input compound: CC(C)[C@@H]1CN(c2ccc(Cl)c(S(C)(=O)=O)c2)CCN1c1ncc(CO)c(C(F)(F)F)n1 [11-3] ; wanted: its Cell LXRα efficacy
**Result** 1014 (62) %

**Query** # input compound: CS(=O)(=O)c1cc(N2CCN(C[C@H]3CC[C@@H](C(F)(F)F)CC3)[C@@H](c3ccc(F)cc3)C2)ccc1F [48-48] ; wanted: its Cell LXRα efficacy
**Result** 460 (53) %

**Query** # input compound: CC(C)[C@H]1CN(c2ccc(CO)c(S(C)(=O)=O)c2)CCN1c1ncc(C(C)(C)O)c(C(F)(F)F)n1 [10-5] ; wanted: its Cell LXRα efficacy
**Result** 3627 (67) %

**Query** # input compound: NS(=O)(=O)c1cccc(N2CCN(C[C@H]3CC[C@@H](C(F)(F)F)CC3)[C@H](c3ccccc3)C2)c1 (single isomer, unassigned) [48-34] ; wanted: its Cell LXRα efficacy
**Result** 9858 (48) %

**Query** # input compound: CC(C)[C@@H]1CN(c2ccc(CO)c(S(C)(=O)=O)c2)CCN1c1nc(C(F)(F)F)c(C(C)(C)O)s1 [Cpd No 27-1] ; wanted: its Cell LXRα efficacy
**Result** 225 (97) %

**Query** # input compound: CC(C)[C@@H]1CN(c2ccc(F)c(S(C)(=O)=O)c2)CCN1c1ccc(C(F)(F)F)cn1 [7-36] ; wanted: its Cell LXRα efficacy
**Result** 333 (106) %

**Query** # input compound: COC(=O)c1cnc(N2CCN(c3ccc(F)c(S(C)(=O)=O)c3)C[C@H]2C(C)C)nc1 [7-14] ; wanted: its Cell LXRα efficacy
**Result** 7124 (30) %

**Query** # input compound: CC(C)[C@@H]1CN(c2ccc(CO)c(S(C)(=O)=O)c2)CCN1c1ncc(C(C)(C)O)c(C(F)(F)F)n1 [10-7] ; wanted: its Cell LXRα efficacy
**Result** 1520 (51) %

**Query** # input compound: CC(C)[C@H]1CN(c2cccc(S(C)(=O)=O)c2)CCN1C[C@H]1CC[C@@H](C(F)(F)F)CC1 (single isomer, unassigned) [Cpd No 48-11] ; wanted: its Cell LXRα efficacy
**Result** 53 (101) %

**Query** # input compound: CS(=O)(=O)c1cccc(N2CCN(Cc3ccc(C(F)(F)F)cc3)[C@@H](c3ccccc3)C2)c1 (single isomer, unassigned) [46-15] ; wanted: its Cell LXRα efficacy
**Result** 2993 (28) %
